// each record: one item and its log10 IC50 for Cytochrome P450 2D6 (Homo sapiens, UniProt P10635)
Annotation: log10 of IC50, nM basis.

Reference set (4 entries):
In [3]: df
Out[3]:
                                   molecule  endpoint_result
0  CCN1C[C@H]2CCCC[C@@]2(c2ccc(Cl)c(Cl)c2)C1             2.40
1        Clc1ccc([C@]23CCCC[C@H]2CNC3)cc1Cl             3.42
2    CN1C[C@H]2CCCC[C@@]2(c2ccc3ccccc3c2)C1             4.13
3      Clc1ccc([C@@]23CCCC[C@@H]2CNC3)cc1Cl             3.90

Here is the next item to consider.
Exam item: Give the reported log10 IC50 for CN1C[C@H]2CCCC[C@@]2(c2ccc(Cl)c(Cl)c2)C1 (single isomer, unassigned) (system: Cytochrome P450 2D6 (Homo sapiens, UniProt P10635)).
Sequence (P10635 whole entry): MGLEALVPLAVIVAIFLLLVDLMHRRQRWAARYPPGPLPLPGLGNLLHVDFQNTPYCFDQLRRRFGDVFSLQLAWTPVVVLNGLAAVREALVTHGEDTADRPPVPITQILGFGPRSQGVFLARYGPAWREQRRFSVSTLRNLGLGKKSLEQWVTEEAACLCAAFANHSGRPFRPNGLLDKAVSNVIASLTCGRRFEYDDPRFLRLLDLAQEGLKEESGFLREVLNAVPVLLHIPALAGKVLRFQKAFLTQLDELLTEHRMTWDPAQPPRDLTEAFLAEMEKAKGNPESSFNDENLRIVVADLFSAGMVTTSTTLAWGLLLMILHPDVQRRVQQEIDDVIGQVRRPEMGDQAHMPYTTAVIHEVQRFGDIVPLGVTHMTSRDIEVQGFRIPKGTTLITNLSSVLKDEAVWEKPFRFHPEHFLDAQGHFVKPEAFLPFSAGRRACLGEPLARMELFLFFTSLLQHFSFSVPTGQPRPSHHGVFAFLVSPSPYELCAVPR
Marked response: 3.04
